Listed molecules paired with reported fold induction at 10 µM
tested on: primary rat mixed cortical cells; assay: In vitro myelination assay (MBP positive myelin strands, fold myelin pixels above background); type: cell-based; details: Rattus norvegicus, 10.0 μM compound, relative to baseline of no added compound; read-out: Fold myelin pixels above background, 10.0 μM

{"columns": ["molecule", "fold induction at 10 µM"],
 "data": [
  ["Cc1cc(Nc2ncn(-c3cncc(Cl)c3)n2)cc(N2CCN(C3COC3)CC2)c1 [Compound 217]", "10 to 100"],
  ["Cc1cc(Nc2ncn(-c3ccccc3)n2)cc(N2CCCN(C)CC2)c1 [Compound 179]", "≤ 1"],
  ["Cc1cc(Nc2ncn(-c3cc(F)cc(F)c3)n2)cc(N2CCC(C3COC3)CC2)c1 [Compound 216]", "10 to 100"]
]}

====

tested on: primary rat mixed cortical cells; test: In vitro myelination assay (MBP positive myelin strands, fold myelin pixels above background); type: cell-based; conditions: Rattus norvegicus, 10.0 μM compound; read-out: Fold myelin pixels above background relative to baseline of no added compound

{"columns": ["molecule", "fold induction at 10 µM"],
 "data": [
  ["Cc1cc(Nc2ncn(-c3cc(F)cc(F)c3)n2)cc(N2CCOC(CN3CCN(C)CC3)C2)c1 (centres unmarked)", "≤ 1"],
  ["CCc1cc(Nc2ncn(-c3ccc(F)c(C)c3)n2)cc(N2CCN(C3COC3)CC2)c1", "≤ 1"],
  ["Cc1cc(Nc2ncn(-c3cc(F)cc(F)c3)n2)nc(N2CC(C#N)C2)c1", "10 to 100"],
  ["Cc1cc(NC2(C)COC2)cc(Nc2ncn(-c3cc(F)cc(F)c3)n2)c1F", "1 to 10"],
  ["[2H]C1([2H])NC([2H])([2H])C([2H])([2H])N(c2cc(C)cc(Nc3ncn(-c4cc(F)cc(F)c4)n3)c2)C1([2H])[2H]", "≤ 1"],
  ["Cc1cc(Nc2ncn(-c3cccc(F)c3)n2)c(F)c(OC2CCOC2)c1 (centres unmarked)", "10 to 100"],
  ["Cc1cc(Nc2ncn(-c3cc(F)cc(F)c3)n2)cc(N2CCN(CC(C)(C)O)CC2C)c1 (centres unmarked)", "≤ 1"],
  ["Cc1cc(Nc2ncn(-c3cc(F)cc(F)c3)n2)cc(N2CCN(CCCO)CC2)c1", "≤ 1"]
]}

====

tested on: primary rat mixed cortical cells; assay: In vitro myelination assay (MBP positive myelin strands, fold myelin pixels above background); format: cell-based; settings: Rattus norvegicus, 10.0 μM compound; read-out: Fold myelin pixels above background relative to baseline of no added compound

{"columns": ["compound", "fold induction at 10 µM"],
 "data": [
  ["Cc1cc(NCC2CN(C(=O)OC(C)(C)C)C2)cc(Nc2ncn(-c3cc(F)cc(F)c3)n2)c1 [Compound 1084]", "1 to 10"],
  ["Cc1cc(Nc2ncn(-c3cc(F)cc(F)c3)n2)cc(N2CCN(CCOCCO)CC2)c1 [Compound 1033]", "≤ 1"],
  ["CC(=O)N[C@H]1C[C@H](Oc2cc(C)cc(Nc3ncn(-c4cc(F)cc(F)c4)n3)c2)C1 [Compound 813]", "1 to 10"],
  ["Cc1cc(Nc2ncn(-c3cc(F)cc(F)c3)n2)cc(N2CCN(CC3CCOC3)CC2)c1 (stereo not shown) [Compound 936]", "≤ 1"],
  ["Clc1cc(Nc2ncn(-c3ccncn3)n2)cc(N2CC(N3CCOCC3)C2)c1 [Compound 863]", "10 to 100"],
  ["Fc1cc(F)cc(-n2cnc(Nc3cc(C(F)(F)F)cc(N4CCN([C@H]5CCOC5)CC4)n3)n2)c1 (single isomer, unassigned) [Compound 787]", "10 to 100"],
  ["COc1ccc(-n2cnc(Nc3cc(C)cc(N4CC(N5CCOCC5)C4)c3)n2)cc1 [Compound 841]", "10 to 100"]
]}
